system: MEG-01; assay: Cell proliferation assay MEG-01; type: cell-based; details: Homo sapiens, CML, 72 hours, read-out: IC50 antiproliferative activity
OBSERVABLE: IC50

What the record says about CS(=O)(=O)N1CCN(Cc2cc3nc(-c4cccc5[nH]ncc45)nc(N4CCOCC4)c3s2)CC1 [GDC-0941, reference compound] : IC50 is > 10 µM

Continuing:
Field IC50 (entry COc1ccc(-c2nc(N3CCOCC3)c3sc(CN(C)c4ncc(C(=O)NO)cn4)cc3n2)cn1 ) reads < 0.01 µM

----------
Tested on: HuT78
Assay: Cell proliferation assay HuT78
Format: cell-based
Conditions: Homo sapiens, T-Cell Lymphoma, 72 hours, read-out: IC50 antiproliferative activity
Method: Growth inhibition was accessed by adenosine triphosphate (ATP) content assay using Promega CellTiter-Glo kit. Promega CellTiter-Glo kit is an ATP monitoring system based on firefly luciferase. […] The mixture was shaken and incubated for 30 minutes and subsequently the luminescence was measured. IC50 values were calculated using PRISM software (GraphPad Software) with sigmoidal dose-response curve fitting.
pIC50: −log10 of the molar value.
OBSERVABLE: pIC50

response.value for CS(=O)(=O)N1CCN(Cc2cc3nc(-c4cccc5[nH]ncc45)nc(N4CCOCC4)c3s2)CC1 [GDC-0941, reference compound] (field: pIC50) = 6.00 to 7.00

Here is another molecule to look at.
Sample COc1ccc(-c2nc(N3CCOCC3)c3sc(CN(C)c4ncc(C(=O)NO)cn4)cc3n2)cn1 ; pIC50 observed: > 8.00

----------
tested on: Granta 519; test: Cell proliferation assay Granta 519; assay type: cell-based; settings: Homo sapiens, B-Cell Lymphoma, 72 hours, read-out: IC50 antiproliferative activity
pIC50: −log10 of the molar value.
OBSERVABLE: pIC50

Test item CS(=O)(=O)N1CCN(Cc2cc3nc(-c4cccc5[nH]ncc45)nc(N4CCOCC4)c3s2)CC1 [GDC-0941, reference compound] ; Granta 519; reported pIC50 was < 5.00

Next:
Case COc1ccc(-c2nc(N3CCOCC3)c3sc(CN(C)c4ncc(C(=O)NO)cn4)cc3n2)cn1 , Granta 519, pIC50 recorded as > 8.00

----------
tested on: PANC-1; assay: Cell proliferation assay PANC-1; format: cell-based; settings: Homo sapiens, Pancreas, 72 hours, read-out: IC50 antiproliferative activity
pIC50: −log10 of the molar value.
Exercise: for every item that follows, state its recorded pIC50.

Please state, for each entry, its recorded pIC50.
1. COc1ccc(-c2nc(N3CCOCC3)c3sc(CN(C)c4ncc(C(=O)NO)cn4)cc3n2)cn1 [Compound 1]
2. CS(=O)(=O)N1CCN(Cc2cc3nc(-c4cccc5[nH]ncc45)nc(N4CCOCC4)c3s2)CC1 [GDC-0941, reference compound]

Reply:
["7.00 to 8.00", "5.00 to 6.00"]

----------
assay: Pharmacokinetics in SCID mice bearing Daudi tumors; format: in vivo; details: female, mouse, Tumor, oral gavage, dose not stated
OBSERVABLE: Tmax (min)
Give bare numbers, in min.

# Tmax of COc1ccc(-c2nc(N3CCOCC3)c3sc(CN(C)c4ncc(C(=O)NO)cn4)cc3n2)cn1 = 6

----------
assay: Pharmacokinetics in nude mice bearing H2122 tumors; assay type: in vivo; settings: mouse; Plasma; PO 50 mg/kg; H2122 tumor-bearing nude mice
OBSERVABLE: bioavailability (%)
One number for each entry, in %.

Looking up COc1ccc(-c2nc(N3CCOCC3)c3sc(CN(C)c4ncc(C(=O)NO)cn4)cc3n2)cn1 , I found its bioavailability recorded as 7.8

----------
Assay: Pharmacokinetic study in dogs
Type: in vivo
Conditions: dog, plasma; PO Capsule 5 mg/kg; beagle dogs
Source text: FIG. 4 is a graph of plasma concentration versus time for both oral and iv dosing.
OBSERVABLE: bioavailability (%)
One number for each entry, in %.

According to the records, this molecule COc1ccc(-c2nc(N3CCOCC3)c3sc(CN(C)c4ncc(C(=O)NO)cn4)cc3n2)cn1 displays bioavailability of 15.1

----------
test system: RPMI-8226; assay: Cell proliferation assay RPMI-8226; assay type: cell-based; details: Homo sapiens, Multiple Myeloma, 72 hours, read-out: IC50 antiproliferative activity
OBSERVABLE: IC50

Kindly note the recorded IC50 for CS(=O)(=O)N1CCN(Cc2cc3nc(-c4cccc5[nH]ncc45)nc(N4CCOCC4)c3s2)CC1 [GDC-0941, reference compound] , which is > 10 µM

New cases:
Query COc1ccc(-c2nc(N3CCOCC3)c3sc(CN(C)c4ncc(C(=O)NO)cn4)cc3n2)cn1 yields IC50 of < 0.01 µM

----------
experiment: Pharmacokinetic study in rats; assay type: in vivo; conditions: rat; single oral gavage 20 mg/kg; male Sprague-Dawley rats; plasma; read-out: half-life (T1/2) (converted)
OBSERVABLE: Half-life (h)
Answers are plain numbers, in h.

Form: molecule = COc1ccc(-c2nc(N3CCOCC3)c3sc(CN(C)c4ncc(C(=O)NO)cn4)cc3n2)cn1 ; Half-life = 11.7

----------
Would you kindly list pIC50 for each of these compounds?
system: Raji; assay: Cell proliferation assay Raji; format: cell-based; settings: Homo sapiens, B-Cell Lymphoma, 72 hours, read-out: IC50 antiproliferative activity
pIC50: −log10 of the molar value.

The recorded pIC50 for CS(=O)(=O)N1CCN(Cc2cc3nc(-c4cccc5[nH]ncc45)nc(N4CCOCC4)c3s2)CC1 [GDC-0941, reference compound] is < 5.00

Note: attention shifts to another entry.
Record summary for COc1ccc(-c2nc(N3CCOCC3)c3sc(CN(C)c4ncc(C(=O)NO)cn4)cc3n2)cn1 [Compound 1] : reported pIC50 = 7.00 to 8.00

----------
system: MDA-MB-231; experiment: Cell proliferation assay MDA-MB-231; assay type: cell-based; conditions: Homo sapiens, Breast, 72 hours, read-out: IC50 antiproliferative activity
I'd be grateful if you could share measured IC50 for these entries.

IC50 recorded for this molecule, CS(=O)(=O)N1CCN(Cc2cc3nc(-c4cccc5[nH]ncc45)nc(N4CCOCC4)c3s2)CC1 [GDC-0941, reference compound] , is > 10000 nM

# next molecule below
Memo: COc1ccc(-c2nc(N3CCOCC3)c3sc(CN(C)c4ncc(C(=O)NO)cn4)cc3n2)cn1 , reported IC50: 10 to 100 nM

----------
Give pIC50 for every item shown.
system: Su-DHL4; assay: Cell proliferation assay Su-DHL4; type: cell-based; conditions: Homo sapiens, SU-DHL-4, B-Cell Lymphoma, 72 hours, read-out: IC50 antiproliferative activity
pIC50: −log10 of the molar value.

The reported value for COc1ccc(-c2nc(N3CCOCC3)c3sc(CN(C)c4ncc(C(=O)NO)cn4)cc3n2)cn1 in terms of pIC50 is > 8.00

***
The compound identified as CS(=O)(=O)N1CCN(Cc2cc3nc(-c4cccc5[nH]ncc45)nc(N4CCOCC4)c3s2)CC1 [GDC-0941, reference compound] registered its pIC50 at 6.00 to 7.00

----------
What pIC50 was measured for each of the following?
tested on: OPM-2; assay: Cell proliferation assay OPM-2; assay type: cell-based; conditions: Homo sapiens, Multiple Myeloma, 72 hours, read-out: IC50 antiproliferative activity
pIC50: −log10 of the molar value.

pIC50 reported for this compound CS(=O)(=O)N1CCN(Cc2cc3nc(-c4cccc5[nH]ncc45)nc(N4CCOCC4)c3s2)CC1 [GDC-0941, reference compound] : 7.00 to 8.00

Next:
Record COc1ccc(-c2nc(N3CCOCC3)c3sc(CN(C)c4ncc(C(=O)NO)cn4)cc3n2)cn1 . Reported pIC50: > 8.00

----------
assay: Pharmacokinetic study in dogs; type: in vivo; conditions: dog; IV 5 mg/kg; beagle dogs; plasma
OBSERVABLE: Cmax (ng/mL)
Numbers only, in ng/mL.

Field Cmax (entry COc1ccc(-c2nc(N3CCOCC3)c3sc(CN(C)c4ncc(C(=O)NO)cn4)cc3n2)cn1 ) reads 6160

----------
experiment: Pharmacokinetic study in rats; format: in vivo; conditions: rat; single oral gavage 20 mg/kg; male Sprague-Dawley rats; plasma
OBSERVABLE: Tmax

Lab note: measured Tmax of COc1ccc(-c2nc(N3CCOCC3)c3sc(CN(C)c4ncc(C(=O)NO)cn4)cc3n2)cn1 was 6 min

----------
experiment: Pharmacokinetics in SCID mice bearing Daudi tumors; assay type: in vivo; conditions: female, mouse, Tumor, oral gavage, dose not stated
OBSERVABLE: Cmax (ng/mL)
Give bare numbers, in ng/mL.

Notebook: COc1ccc(-c2nc(N3CCOCC3)c3sc(CN(C)c4ncc(C(=O)NO)cn4)cc3n2)cn1 , Cmax read as 1040

----------
system: HH; assay: Cell proliferation assay HH; assay type: cell-based; details: Homo sapiens, T-Cell Lymphoma, 72 hours, read-out: IC50 antiproliferative activity
OBSERVABLE: IC50

The measured IC50 associated with CS(=O)(=O)N1CCN(Cc2cc3nc(-c4cccc5[nH]ncc45)nc(N4CCOCC4)c3s2)CC1 [GDC-0941, reference compound] reads 100 to 1000 nM

Query compound follows.
For this compound ( COc1ccc(-c2nc(N3CCOCC3)c3sc(CN(C)c4ncc(C(=O)NO)cn4)cc3n2)cn1 ), measured IC50 is < 10 nM
